System: MS2 coat protein
Method: apparent Kd, MS2 coat protein; higher = weaker binding; RNA-MaP array
Assay context: ligand present: flavin mononucleotide; designed as: OFF switch for flavin mononucleotide
Metric name: apparent Kd (nM)
Number in nM, nothing else.

[Q] Would you mind telling me what apparent Kd value was observed for ACAAAGACAGGAUAUACAAAUUACAACUAAUCAAGGAAAAGACAUGAGGAUCACCCAUGUAGAAGGGUCAAUAA ?
[A] 20.5

[Q] // next record UUGUCCCGAGGAUAUGAGAGGGAGUACAUGAGGAUCACCCAUGUCAUGAAUCUUCAUAUCUCAGAAGGCGGUUGAU
[A] 6.24

[Q] Can you check AACAUGAGGAUCACCCAUGUCGGGUAUAGGAAUGUGUGUCUGCAGGAUAUGCCUUGCAUUGCAUAGCAGAAGGGCACGGCUCAG next?
[A] 64.2

[Q] What about this sequence? GACGUGGAGUCAGGAUAUCGACGACAUUCUUAGCGAGAAGGGACCUAGCUUAGAUCAACAUGAGGAUCACCCAUGUCGAGUUUC
[A] 20.4

====

Please respond with reported apparent Kd for every item in the list.
System: MS2 coat protein
Method: apparent Kd, MS2 coat protein; higher = weaker binding; RNA-MaP array; tryptophan 2.4 mM where present
Assay context: ligand present: tryptophan; designed as: ON switch for tryptophan

[Q] // apparent Kd lookup, key: AACAUGAGGAUCACCCAUGUCCUCAUGAUUCGAGGACCGGUACGGCCGCCACUCGGUCCUCGCGAGGAGGAGUCAAAGACUCCAA
[A] 393 nM

[Q] Cool, now GGUUACUCUACGGCCGCCACUGUAAUGUAAAGAUUCCUGUACAUGACAUGAGGAUCACCCAUGUGCAGGACCGGGUAGUGUAACC
[A] 52.6 nM

[Q] Follow-up entry: AAAUGUACGUCGGCCGCCACUGCGCUGAAGACAGUCACAUGAGGAUCACCCAUGUACGACAAGGGUAGGACCGGGAUGUGAGGGU
[A] 44.7 nM

[Q] Same again, this time with UGUCGGCGUAAGUUGGCAUGUCUUGCUGGUCGAGGACCGGUACGGCCGCCACUCGAUCCUUCGCACAUGAGGAUCACCCAUGUUG
[A] 17.1 nM

====

System: MS2 coat protein
Method: apparent Kd, MS2 coat protein; higher = weaker binding; RNA-MaP array; theophylline 2 mM where present
Assay context: ligand present: theophylline; designed as: OFF switch for theophylline
Metric name: apparent Kd (nM)
# unit: nM | format: bare number

[Q] Data request, read-out apparent Kd, for AUAAUGGGUAUCGGAUUAUCAUGAUAUGAUACCAGAUACUUAGAUAUCCCUUGGCAGCAUGAGGACAUGAGGAUCACCCAUGUAU
[A] 61.8

[Q] // repeat for GUGUUUGUGUGAGAUACCAGUGAGGCCACAUGAGGAUCACCCAUGUCCCUCACUCCGGCCCACCCUUGGCAGCUCUUAUAGUAGU and report
[A] 38.4

[Q] Please do the same for AGCGCAGGUCCUGAUACCAGUGACAUGAGGAUCACCCAUGUCCGAUGGGCCUGCCUCUGACACCCUUGGCAGCAGGGCUUGUGCU as well.
[A] 29.8

[Q] Can you handle AUAAGGUAUCUGCUAUCCUCAUGAGCAGAUACCAGCUAGGAAACUAGCCCUUGGCAGCUGCAACAUGAGGAUCACCCAUGUAAUA next?
[A] 92.3

[Q] Repeat for the following sequence: AUCUCAUAGAGUGAUACCAGACUACAUGAGGAUCACCCAUGUUACAUUUAAAUAUCAUUUGUCCCUUGGCAGCACAUUAAGUACA
[A] 15.2

[Q] Also, UGACAUUGCUCAGAUACCAGACAUGAGGAUCACCCAUGUACCAAGAGUACAAAUUAAAAUGUCCCUUGGCAGCUGAGCAAUGUCU please.
[A] 483

[Q] Query UCGCAUUGCUCAGAUACCAGACAUGAGGAUCACCCAUGUACCAAGGUAACCGAAAGGCAUGUCCCUUGGCAGCUGAGCAAUGCGU next
[A] 225

[Q] What about AAACUGGGUGUAAAAUAAAUAAUCACUGAUACCAGACUAUAGUAUGUCCCUUGGCAGCAGAAACAUGAGGAUCACCCAUGUAAUA ?
[A] 21.3

[Q] Please do the same for UACAUGAGGAUCACCCAUGUAUAGAGGGAUACCAGUGUCAGUGAGCACCCUUGGCAGCCCGCGAACAAUGGGUGCGCUAAAUAGU as well.
[A] 56.9

====

System: MS2 coat protein
Method: apparent Kd, MS2 coat protein; higher = weaker binding; RNA-MaP array; theophylline 2 mM where present
Assay context: ligand present: theophylline; designed as: OFF switch for theophylline
Decide by apparent Kd: equal to or exceeding 0.04 µM means 1.0, less means 0.0.

[Q] # check: apparent Kd of GUUAUGGACCUGGAUACCAGCUGGUACAAGGGCGGUCUACAUGAGGAUCACCCAUGUGUCAGCCCUUGGCAGCCAGCAACCGGCA is greater than or equal to 0.04 µM
[A] 0.0

[Q] Try this sequence next: AGCGACAUGCGUGAUACCAGCUACAUGAGGAUCACCCAUGUCAGCAGGAAACUGCUGUGUAGCCCUUGGCAGCACAGUGCAUGUC
[A] 0.0

[Q] Thanks! And GUAUGGAAACAUACUAUGGUAUCGUGAGAUACCAGUACAGAAAUGUACCCUUGGCAGCUCGCGCAUACAUGAGGAUCACCCAUGU ?
[A] 0.0

[Q] Also, ACAUGAGGAUCACCCAUGUUCCUCUUUGAUACCAGUGAGUUGUUUCGCCCUUGGCAGCGAGUGUUUGUUUUUUUGUUUUGUUUGG please.
[A] 1.0

[Q] Proceed to AAGAAGUUUUGAUUUUUAUGAAGUAGUGAUACCAGUCAAGAAAGAGACCCUUGGCAGCGCAACAUGAGGAUCACCCAUGUAAGAA
[A] 0.0

[Q] What about this sequence? CAAACAUGAGGAUCACCCAUGUAAUCAGAUACCAGUGACGAAAGUCACCCUUGGCAGCUGAUUACUUUAGUUCUAAGGUGUUUGA
[A] 1.0

[Q] Same read-out for GAGGGUGGGUCUCUAAUCCGUUUGACGGAUACCAGCGAGAGAUAUCGCCCUUGGCAGCCGACGACAUGAGGAUCACCCAUGUAAA ?
[A] 1.0

[Q] // query: UCCACAUGAGGAUCACCCAUGUAAUCAGAUACCAGUGACGAAAGUCACCCUUGGCAGCUGAUUACUUUAGUUCGAGGGUGUUUGA
[A] 1.0

[Q] Okay, and AAGGGUGAGUCUCUAAUCCGUUUGACGGAUACCAGCGAGAGAUAUCGCCCUUGGCAGCCGACGACAUGAGGAUCACCCAUGUAAA ?
[A] 0.0

[Q] Next sequence up: AGCGAUAUGCAUGAUACCAGCUACAUGAGGAUCACCCAUGUGCGUCAGUAAUGACUGUGUAGCCCUUGGCAGCAUAGAGCAUGUA
[A] 1.0

[Q] Next: CGGUUUGUGAUGGAUACCAGCAGAGAGAAUGUUUAUCCUGACAUGAGGAUCACCCAUGUGUGCCCUUGGCAGCUGUUGUGGGCUG
[A] 1.0

[Q] Same for GUCAGUAGAACAGAUACCAGUCAAAAGCUGUGAUCUCAUAACAUGAGGAUCACCCAUGUUGACCCUUGGCAGCUGUGGGCGAGGG
[A] 1.0

[Q] Subsequent entry: UACAUGAGGAUCACCCAUGUAUGAAUAGAUACCAGAUAAAAUAAGGUCCCUUGGCAGCUAGUGAAUAAAGGGUGGGUAAAAUAAU
[A] 0.0

[Q] Another sequence to look at: UACAUGAGGAUCACCCAUGUAUGAAUGGAUACCAGAUAAAAUAAGGUCCCUUGGCAGCUAGUGAAUCGAGGGUGGGUAUCAUGUU
[A] 0.0

[Q] Entry UUUUUUAACAUGGCGUAUCGGAAAACCGAUACCAGUACAGAAAUGUACCCUUGGCAGCGGCGUUUUACAUGAGGAUCACCCAUGU please
[A] 1.0

[Q] Next: AGACAUGAGGAUCACCCAUGUAGUACGGAUACCAGAUCCAGAUGCGUCCCUUGGCAGCUGUAGUACAGCGUUACAUCGCUCAUAG
[A] 1.0

[Q] // query: UCACGAGGCCUGGAUACCAGCGACAUGAGGAUCACCCAUGUAUGAGGAUCAGCCAUGUUAUGCCCUUGGCAGCCACGAAGGUCAU
[A] 1.0

[Q] Same question for AUAACAUGAGGAUCACCCAUGUAAGCAGAUACCAGCUAGGAAACUAGCCCUUGGCAGCUGCAUAGUGAUCCAUAUAUCUGCUAAU please.
[A] 1.0

[Q] One more sequence: AUGGCGUUGGUGUAGCUGUGAAAUGGCGAUACCAGCGUGGAAACACGCCCUUGGCAGCGCCAAAACAUGAGGAUCACCCAUGUUA
[A] 1.0
